# test description: Antiproliferative activity against human HTB-58 cells by MTT assay
# Assay type: functional, cell-based
pIC50: −log10 of the molar value.
metric: pIC50

Fill in reported pIC50 for this entry: "COc1cc2c3c(nccc3c1N)-c1ccccc1C2=O"
< 5.68

Fill in reported pIC50 for this entry: "COc1cc2c3c(c1[N+](=O)[O-])C(=O)c1ccccc1C3=NCC2"
< 5.68

Fill in reported pIC50 for this entry: COc1ccc2c(c1)C(=O)c1c(NCCc3ccc(O)cc3)c(OC)cc3ccnc-2c13 [DAURIOXOISOPORPHINE A]
< 5.52

Fill in reported pIC50 for this entry: COc1cc2ccnc3c2c(c1N)C(=O)c1ccccc1-3 [LAKSHMININE]
< 5.68

Fill in reported pIC50 for this entry: CNc1c(OC)cc2ccnc3c2c1C(=O)c1cc(OC)ccc1-3 [DAURIOXOISOAPORPHINE C]
< 5.68

Fill in reported pIC50 for this entry: "COc1cc2c3c(nccc3c1)-c1ccccc1C2=O"
< 5.68

Fill in reported pIC50 for this entry: "COc1cc2c3c(c1[N+](=O)[O-])CCN=C3c1ccccc1C2=O"
< 5.68

Fill in reported pIC50 for this entry: COc1ccc2c(c1)C(=O)c1c(N)c(OC)c(OC)c3ccnc-2c13 [DAURIOXOISOPORPHINE B]
< 5.52

Fill in reported pIC50 for this entry: "COc1cc2ccnc3c2c(c1[N+](=O)[O-])C(=O)c1ccccc1-3"
< 5.68

Fill in reported pIC50 for this entry: COc1ccc2c(c1)C(=O)c1c(NCCc3ccc(O)cc3)c(OC)c(OC)c3ccnc-2c13 [TYRAMINOPORPINE]
< 5.68

Fill in reported pIC50 for this entry: "COc1cc2c3c(c1)C(=O)c1ccccc1C3=NCC2"
< 5.68
